Give measured log10(MIC90) for each item. Keep answers brief.
system: Staphylococcus aureus; assay: microbe, parasite or virus in culture; format: functional; details: ATCC 29213, 24 h
Description: Antibacterial activity against Staphylococcus aureus ATCC 29213 after 24 hrs by macrobroth dilution method
Values reflect log10 of reported MIC90 (µg/mL).

*Q* What log10(MIC90) value was documented for this compound, "Cc1cc(O)cc(C)c1Cl" ?
*A* 1.51

*Q* # iterate: "CC(C)(C)CC(C)(C)c1ccc(OCc2cn(C[C@H]3O[C@@H](O[C@@H]4[C@@H](O)[C@H](N)C[C@H](N)[C@H]4O[C@H]4O[C@H](CN)[C@@H](O)[C@H](O)[C@H]4N)[C@H](O)[C@@H]3O[C@H]3O[C@@H](CN)[C@@H](O)[C@H](O)[C@H]3N)nn2)c(Cc2ccc(Cl)cc2Cl)c1"
*A* 0.90

*Q* # iterate: "Cc1cc(OCc2cn(C[C@H]3O[C@@H](O[C@@H]4[C@@H](O)[C@H](N)C[C@H](N)[C@H]4O[C@H]4O[C@H](CN)[C@@H](O)[C@H](O)[C@H]4N)[C@H](O)[C@@H]3O[C@H]3O[C@@H](CN)[C@@H](O)[C@H](O)[C@H]3N)nn2)cc(C)c1Cl"
*A* 1.20

*Q* # iterate: "Cc1cc(OCCCCc2cn(C[C@H]3O[C@@H](O[C@@H]4[C@@H](O)[C@H](N)C[C@H](N)[C@H]4O[C@H]4O[C@H](CN)[C@@H](O)[C@H](O)[C@H]4N)[C@H](O)[C@@H]3O[C@H]3O[C@@H](CN)[C@@H](O)[C@H](O)[C@H]3N)nn2)cc(C)c1Cl"
*A* 1.20

*Q* # iterate: NC[C@@H]1O[C@H](O[C@H]2[C@@H](O)[C@H](O[C@@H]3[C@@H](O)[C@H](N)C[C@H](N)[C@H]3O[C@H]3O[C@H](CN)[C@@H](O)[C@H](O)[C@H]3N)O[C@@H]2CO)[C@H](N)[C@@H](O)[C@@H]1O.O.O=S(=O)(O)O [NEOMYCIN TRISULFATE HYDRATE]
*A* 0.00

*Q* # iterate: "CC(C)(C)CC(C)(C)c1ccc(OCCCCc2cn(C[C@H]3O[C@@H](O[C@@H]4[C@@H](O)[C@H](N)C[C@H](N)[C@H]4O[C@H]4O[C@H](CN)[C@@H](O)[C@H](O)[C@H]4N)[C@H](O)[C@@H]3O[C@H]3O[C@@H](CN)[C@@H](O)[C@H](O)[C@H]3N)nn2)c(Cc2ccc(Cl)cc2Cl)c1"
*A* 1.20

*Q* # iterate: "Oc1cc(Cl)ccc1Oc1ccc(Cl)cc1Cl"
*A* -0.30

====

Give measured MIC90 for each item. Keep answers brief.
tested on: Streptococcus pneumoniae; test: microbe, parasite or virus in culture; format: functional; settings: ATCC 49619, 24 h
Description: Antibacterial activity against Streptococcus pneumoniae ATCC 49619 after 24 hrs by macrobroth dilution method
Give the quantity in µg/mL, number only.

*Q* What MIC90 value was documented for this molecule, "CC(C)(C)CC(C)(C)c1ccc(OCc2cn(C[C@H]3O[C@@H](O[C@@H]4[C@@H](O)[C@H](N)C[C@H](N)[C@H]4O[C@H]4O[C@H](CN)[C@@H](O)[C@H](O)[C@H]4N)[C@H](O)[C@@H]3O[C@H]3O[C@@H](CN)[C@@H](O)[C@H](O)[C@H]3N)nn2)c(Cc2ccc(Cl)cc2Cl)c1" ?
*A* 64

*Q* # iterate: "Cc1cc(O)cc(C)c1Cl"
*A* 128

*Q* # iterate: "Cc1cc(OCc2cn(C[C@H]3O[C@@H](O[C@@H]4[C@@H](O)[C@H](N)C[C@H](N)[C@H]4O[C@H]4O[C@H](CN)[C@@H](O)[C@H](O)[C@H]4N)[C@H](O)[C@@H]3O[C@H]3O[C@@H](CN)[C@@H](O)[C@H](O)[C@H]3N)nn2)cc(C)c1Cl"
*A* 64
